B1: FCHSD1 (parent)
chain: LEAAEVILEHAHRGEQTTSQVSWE

# Variants of: B1
# measurementDescription: protein stability index of a GFP-peptide fusion (GPS, HEK-293T) (PSI 1-6); higher = more stable;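 further: lentivirally expressed fusions sorted by FACS into six bins by GFP to DsRed ratio, PSI derived from sequencing read proportions per bin multiplied by bin number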
# setupConditions: c terminus: a fixed tail appended
Provide the recorded protein stability index for the entries that follow.

Q20M
4.34

Hi team, please reply with protein stability index for each item in this list.
1. S19E
2. Q20N
3. L8V
4. E5L
5. V6E
6. W23L
7. S19H
8. E9H

Response given:
1: 4.75; 2: 4.86; 3: 4.83; 4: 1.11; 5: 5.31; 6: 5.12; 7: 4.14; 8: 4.18

Hi team, please reply with protein stability index for each item in this list.
1. V6G
2. I7Q

Response given:
1: 5.35; 2: 4.55

Hi team, please reply with protein stability index for each item in this list.
1. E2H
2. S19D
3. T17A
4. E9S
5. T17P

Response given:
1: 4.72; 2: 5.11; 3: 4.2; 4: 4.4; 5: 4.14

Hi team, please reply with protein stability index for each item in this list.
1. A4T
2. H12D
3. A11V
4. E15A
5. V21K
6. R13S
7. A4G
8. E5W

Response given:
1. 3.82
2. 4.04
3. 4.54
4. 3.79
5. 4.68
6. 4.24
7. 5.06
8. 1.53
